Measured values drawn from ChEMBL document CHEMBL1914347 for this set.

Can you tell me IC50 for the items I'm about to list?
# assay text: Inhibition of bovine brain Vo domain of V-ATPase activity assessed as ATP-mediated proton translocation by spectrophotometric analysis
# Design: species or system Bos taurus
Answers are plain numbers, in µM.

# molecule, IC50, µM
data = [
    ("CC(C)=CC(=O)N/C=C/C(C)=C/[C@@H](C)[C@H]1C/C(C)=C/C=C/CC[C@H](OC(N)=O)[C@@H](O)/C=C/[C@@H](O)CCC/C=C/C(=O)O1 [PALMEROLIDE A]", 0.002),
]

Can you give me IC50 for all of these, one by one?
1. C=C(C)C/C(C)=C\C(=O)N/C=C/C(C)=C/[C@@H](C)[C@H]1C/C(C)=C/C=C/CC[C@H](OC(N)=O)[C@@H](O)/C=C/[C@@H](O)CCC/C=C/C(=O)O1 [PALMEROLIDE D]
2. CC(C)=CC(=O)N/C=C/C(C)=C\[C@@H](C)[C@H]1C/C(C)=C/C=C/CC[C@H](OC(N)=O)[C@@H](O)/C=C/[C@@H](O)CCC/C=C/C(=O)O1 [PALMEROLIDE G]
3. C=C(C)CC(=O)N/C=C/C(C)=C/[C@@H](C)[C@H]1C/C(C)=C/C=C/CC[C@H](OC(N)=O)[C@@H](O)/C=C/[C@@H](O)CCC/C=C/C(=O)O1 [PALMEROLIDE F]

0.025
0.007
0.063
